Molecular target: α1β2γ2S GABAA receptors (Homo sapiens, UniProt P14867+P47870)
Construct: expressed in transfected cells; host or cells: Xenopus laevis oocytes injected with cRNA (pCMV cDNA templates)
Sequence (P14867 28-456): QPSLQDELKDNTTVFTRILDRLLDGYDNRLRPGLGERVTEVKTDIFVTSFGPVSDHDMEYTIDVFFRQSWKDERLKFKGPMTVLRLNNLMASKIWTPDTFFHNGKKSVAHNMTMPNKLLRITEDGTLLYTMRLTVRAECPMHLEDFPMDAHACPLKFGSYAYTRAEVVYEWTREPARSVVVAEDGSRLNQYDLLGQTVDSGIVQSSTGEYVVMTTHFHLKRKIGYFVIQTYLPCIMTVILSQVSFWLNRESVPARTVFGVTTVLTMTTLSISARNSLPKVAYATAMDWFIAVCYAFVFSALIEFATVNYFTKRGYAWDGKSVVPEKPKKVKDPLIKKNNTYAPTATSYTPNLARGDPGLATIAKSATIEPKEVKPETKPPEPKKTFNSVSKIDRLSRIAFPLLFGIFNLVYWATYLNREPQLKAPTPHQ
Sequence (P47870 26-512): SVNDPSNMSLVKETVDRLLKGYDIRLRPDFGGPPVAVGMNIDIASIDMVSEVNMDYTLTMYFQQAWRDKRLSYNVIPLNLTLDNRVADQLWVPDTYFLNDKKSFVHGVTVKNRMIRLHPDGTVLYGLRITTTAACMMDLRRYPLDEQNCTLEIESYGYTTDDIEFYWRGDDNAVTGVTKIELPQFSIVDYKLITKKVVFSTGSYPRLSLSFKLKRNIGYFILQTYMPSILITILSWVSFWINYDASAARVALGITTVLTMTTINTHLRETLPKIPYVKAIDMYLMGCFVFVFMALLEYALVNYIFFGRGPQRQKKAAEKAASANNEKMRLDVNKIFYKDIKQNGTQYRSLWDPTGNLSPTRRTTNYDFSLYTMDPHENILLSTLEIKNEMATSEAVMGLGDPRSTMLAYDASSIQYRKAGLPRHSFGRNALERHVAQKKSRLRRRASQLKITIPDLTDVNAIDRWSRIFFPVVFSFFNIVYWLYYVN
Sequence (P18507 40-467 isoform P18507-1 partner limits assumed): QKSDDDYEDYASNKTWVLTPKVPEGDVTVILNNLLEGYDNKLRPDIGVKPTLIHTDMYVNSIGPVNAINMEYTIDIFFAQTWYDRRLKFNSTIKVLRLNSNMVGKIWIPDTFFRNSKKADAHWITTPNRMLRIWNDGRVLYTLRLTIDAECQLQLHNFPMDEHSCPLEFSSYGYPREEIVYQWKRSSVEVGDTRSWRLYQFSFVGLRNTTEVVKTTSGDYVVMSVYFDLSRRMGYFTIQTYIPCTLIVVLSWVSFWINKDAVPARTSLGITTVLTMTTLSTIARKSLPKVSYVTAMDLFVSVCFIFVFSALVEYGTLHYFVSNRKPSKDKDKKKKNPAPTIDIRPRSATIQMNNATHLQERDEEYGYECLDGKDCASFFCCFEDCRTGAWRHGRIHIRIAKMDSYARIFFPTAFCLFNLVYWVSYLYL
Assay: Two-microelectrode voltage clamp, IGABA modulation, α1β2γ2S
Type: cell-based
Settings: 100 μM compound, GABA EC3–7, Xenopus laevis oocytes, mean ± SEM
Kindly return yes if reported activation at 100 µM is no lower than 30%; return no if it is lower.

[ask] Can O=C(/C=C/C=C/c1ccc2c(c1)OCO2)N1CCN(Cc2ccccc2)CC1 [Compound 42] be said to have activation at 100 µM at or above 30%?
[reply] yes

[ask] Can O=C(c1ccc(-c2ccc3c(c2)OCO3)cc1)N1CCCCC1 [Compound 46] be said to have activation at 100 µM at or above 30%?
[reply] yes

[ask] Can CCCCNC(=O)/C=C/C=C/c1ccc2c(c1)OCO2 [Compound 11] be said to have activation at 100 µM at or above 30%?
[reply] yes

[ask] Can CCCCCCN(CCCCCC)C(=O)/C=C/C=C/c1ccc2c(c1)OCO2 [Compound 26] be said to have activation at 100 µM at or above 30%?
[reply] no

[ask] Can O=C(/C=C/C=C/c1ccc2c(c1)OCO2)Nc1ccc(Cl)cn1 [Compound 7] be said to have activation at 100 µM at or above 30%?
[reply] no

[ask] Can O=C(/C=C/C=C/c1ccc2c(c1)OCO2)NC1CCCC1 [Compound 13] be said to have activation at 100 µM at or above 30%?
[reply] yes

[ask] Can O=C(/C=C/C=C/c1ccc2c(c1)OCO2)N1CCC(O)CC1 [Compound 37] be said to have activation at 100 µM at or above 30%?
[reply] no

[ask] Can C(/C=C/c1ccc2c(c1)OCO2)=C\CN1CCCCC1 [Compound 45] be said to have activation at 100 µM at or above 30%?
[reply] no

[ask] Can COc1ccc(CCNC(=O)/C=C/C=C/c2ccc3c(c2)OCO3)cc1OC [Compound 5] be said to have activation at 100 µM at or above 30%?
[reply] no

Data provenance is paper PMC4106271.
